Tested on: HCT-116
method: Growth inhibition of human HCT116 cells assessed as cell growth at 10 uM incubated for 48 hrs by sulforhodamine B assay relative to control
Type: functional
condition: HCT-116, 48 h, read-out: Activity
Here the recorded growth at 10 µM is given for each entry.
observationType: growth at 10 µM (%)

- inputSmiles: "COc1cc(Cl)cc(-c2nn(-c3cccc(NC(=O)Nc4cccc(C(F)(F)F)c4)c3)cc2-c2ccncc2)c1"
  numericValue: 5.07
- inputSmiles: "O=C(Nc1cccc(-n2cc(-c3ccncc3)c(-c3cc(O)cc(Cl)c3)n2)c1)c1ccc(N2CCOCC2)c(C(F)(F)F)c1"
  numericValue: 12.7
- inputSmiles: "COc1cc(Cl)cc(-c2nn(-c3cccc(NC(=O)Nc4ccc(Cl)c(C(F)(F)F)c4)c3)cc2-c2ccncc2)c1"
  numericValue: 3.39
- inputSmiles: "O=C(Nc1cccc(-n2cc(-c3ccncc3)c(-c3cc(O)cc(Cl)c3)n2)c1)Nc1ccc(Cl)c(Cl)c1"
  numericValue: -57.3

----------
Test system: SF-295
method: Growth inhibition of human SF295 cells assessed as cell growth at 100 uM incubated for 48 hrs by sulforhodamine B assay relative to control
Format: functional
condition: SF-295, 48 h, read-out: Activity
Here the recorded growth at 100 µM is given for each entry.

- inputSmiles: "COc1cc(Cl)cc(-c2nn(-c3cccc(NC(=O)Nc4cccc(C(F)(F)F)c4)c3)cc2-c2ccncc2)c1"
  growth at 100 µM: "-53%"
- inputSmiles: "COc1cc(Cl)cc(-c2nn(-c3cccc(NC(=O)c4cccc(C(F)(F)F)c4)c3)cc2-c2ccncc2)c1"
  growth at 100 µM: "35%"
- inputSmiles: "O=C(Nc1cccc(-n2cc(-c3ccncc3)c(-c3cc(O)cc(Cl)c3)n2)c1)Nc1ccc(Cl)c(C(F)(F)F)c1"
  growth at 100 µM: "-80%"
- inputSmiles: "COc1cc(Cl)cc(-c2nn(-c3cccc(NC(=O)c4ccc(N5CCOCC5)c(C(F)(F)F)c4)c3)cc2-c2ccncc2)c1"
  growth at 100 µM: "-32%"
- inputSmiles: "O=C(Nc1cccc(-n2cc(-c3ccncc3)c(-c3cc(O)cc(Cl)c3)n2)c1)c1ccc(N2CCOCC2)c(C(F)(F)F)c1"
  growth at 100 µM: "-81%"

----------
System: SF-539
method: Growth inhibition of human SF539 cells incubated for 48 hrs by sulforhodamine B assay
Assay type: functional, cell-based
condition: SF-539, 48 h, read-out: LC50 (the source's name)

- inputSmiles: "O=C(Nc1cccc(-n2cc(-c3ccncc3)c(-c3cc(O)cc(Cl)c3)n2)c1)Nc1ccc(Cl)c(C(F)(F)F)c1"
  qualifier: "="
  CC50 / µM: 13.7
- inputSmiles: "COc1cc(Cl)cc(-c2nn(-c3cccc(NC(=O)Nc4ccc(Cl)c(C(F)(F)F)c4)c3)cc2-c2ccncc2)c1"
  qualifier: "="
  CC50 / µM: 7.51
- inputSmiles: "COc1cc(Cl)cc(-c2nn(-c3cccc(NC(=O)Nc4cc(C(F)(F)F)cc(C(F)(F)F)c4)c3)cc2-c2ccncc2)c1"
  qualifier: "="
  CC50 / µM: 0.055
- inputSmiles: "COc1cc(Cl)cc(-c2nn(-c3cccc(NC(=O)Nc4cccc(C(F)(F)F)c4)c3)cc2-c2ccncc2)c1"
  qualifier: "="
  CC50 / µM: 21.1
- inputSmiles: "O=C(Nc1cccc(-n2cc(-c3ccncc3)c(-c3cc(O)cc(Cl)c3)n2)c1)c1cc(C(F)(F)F)cc(C(F)(F)F)c1"
  qualifier: ">"
  CC50 / µM: 100

----------
Test system: HT-29
method: Growth inhibition of human HT-29 cells assessed as cell growth at 100 uM incubated for 48 hrs by sulforhodamine B assay relative to control
Type: functional
condition: HT-29, 48 h, read-out: Activity
observationType: growth at 100 µM (%)

- inputSmiles: "COc1cc(Cl)cc(-c2nn(-c3cccc(NC(=O)Nc4cc(C(F)(F)F)cc(C(F)(F)F)c4)c3)cc2-c2ccncc2)c1"
  numericValue: -96
- inputSmiles: "COc1cc(Cl)cc(-c2nn(-c3cccc(NC(=O)Nc4ccc(Cl)c(C(F)(F)F)c4)c3)cc2-c2ccncc2)c1"
  numericValue: -84
- inputSmiles: "COc1cc(Cl)cc(-c2nn(-c3cccc(NC(=O)c4cccc(C(F)(F)F)c4)c3)cc2-c2ccncc2)c1"
  numericValue: 34
- inputSmiles: "COc1cc(Cl)cc(-c2nn(-c3cccc(NC(=O)c4ccc(N5CCOCC5)c(C(F)(F)F)c4)c3)cc2-c2ccncc2)c1"
  numericValue: -17
- inputSmiles: "O=C(Nc1cccc(-n2cc(-c3ccncc3)c(-c3cc(O)cc(Cl)c3)n2)c1)c1cc(C(F)(F)F)cc(C(F)(F)F)c1"
  numericValue: -5
- inputSmiles: "O=C(Nc1cccc(-n2cc(-c3ccncc3)c(-c3cc(O)cc(Cl)c3)n2)c1)Nc1ccc(Cl)c(C(F)(F)F)c1"
  numericValue: -88
- inputSmiles: "O=C(Nc1cccc(-n2cc(-c3ccncc3)c(-c3cc(O)cc(Cl)c3)n2)c1)Nc1ccc(Cl)c(Cl)c1"
  numericValue: -70

----------
System: NCI-H23
method: Growth inhibition of human NCI-H23 cells incubated for 48 hrs by sulforhodamine B assay
Assay type: functional, cell-based
condition: NCI-H23, 48 h, read-out: pGI50 (converted)
Here the recorded GI50 is given for each entry.
observationType: GI50 (µM)

- inputSmiles: "COc1cc(Cl)cc(-c2nn(-c3cccc(NC(=O)Nc4ccc(Cl)c(Cl)c4)c3)cc2-c2ccncc2)c1"
  observationType: "GI50"
  numericValue: 2.63
- inputSmiles: "O=C(Nc1cccc(-n2cc(-c3ccncc3)c(-c3cc(O)cc(Cl)c3)n2)c1)c1cc(C(F)(F)F)cc(C(F)(F)F)c1"
  observationType: "GI50"
  numericValue: 4.17
- inputSmiles: "O=C(Nc1cccc(-n2cc(-c3ccncc3)c(-c3cc(O)cc(Cl)c3)n2)c1)Nc1ccc(Cl)c(Cl)c1"
  observationType: "GI50"
  numericValue: 2.4
- inputSmiles: "COc1cc(Cl)cc(-c2nn(-c3cccc(NC(=O)c4cccc(C(F)(F)F)c4)c3)cc2-c2ccncc2)c1"
  observationType: "GI50"
  numericValue: 6.76

----------
Test system: HCT-116
method: Growth inhibition of human HCT116 cells incubated for 48 hrs by sulforhodamine B assay
Assay type: functional, cell-based
condition: HCT-116, 48 h

- inputSmiles: "COc1cc(Cl)cc(-c2nn(-c3cccc(NC(=O)Nc4ccc(Cl)c(Cl)c4)c3)cc2-c2ccncc2)c1"
  IC50: "2020 nM"
- inputSmiles: "COc1cc(Cl)cc(-c2nn(-c3cccc(NC(=O)Nc4ccc(Cl)c(C(F)(F)F)c4)c3)cc2-c2ccncc2)c1"
  IC50: "630 nM"
- inputSmiles: "COc1cc(Cl)cc(-c2nn(-c3cccc(NC(=O)Nc4cccc(C(F)(F)F)c4)c3)cc2-c2ccncc2)c1"
  IC50: "750 nM"

----------
Tested on: Hs-578T
method: Growth inhibition of human Hs578T cells assessed as cell growth at 10 uM incubated for 48 hrs by sulforhodamine B assay relative to control
Type: functional
condition: read-out: Activity
observationType: growth at 10 µM (%)

- inputSmiles: "COc1cc(Cl)cc(-c2nn(-c3cccc(NC(=O)Nc4ccc(Cl)c(C(F)(F)F)c4)c3)cc2-c2ccncc2)c1"
  observationType: "growth at 10 µM"
  valueUnit: "%"
  numericValue: 14.6
- inputSmiles: "O=C(Nc1cccc(-n2cc(-c3ccncc3)c(-c3cc(O)cc(Cl)c3)n2)c1)c1cc(C(F)(F)F)cc(C(F)(F)F)c1"
  observationType: "growth at 10 µM"
  valueUnit: "%"
  numericValue: 65.9
- inputSmiles: "COc1cc(Cl)cc(-c2nn(-c3cccc(NC(=O)Nc4ccc(Cl)c(Cl)c4)c3)cc2-c2ccncc2)c1"
  observationType: "growth at 10 µM"
  valueUnit: "%"
  numericValue: 28.5
- inputSmiles: "COc1cc(Cl)cc(-c2nn(-c3cccc(NC(=O)c4cc(C(F)(F)F)cc(C(F)(F)F)c4)c3)cc2-c2ccncc2)c1"
  observationType: "growth at 10 µM"
  valueUnit: "%"
  numericValue: 81.1
- inputSmiles: "COc1cc(Cl)cc(-c2nn(-c3cccc(NC(=O)c4ccc(N5CCOCC5)c(C(F)(F)F)c4)c3)cc2-c2ccncc2)c1"
  observationType: "growth at 10 µM"
  valueUnit: "%"
  numericValue: 40.7

----------
System: MDA-MB-231
method: Growth inhibition of human MDA-MB-231 cells assessed as cell growth at 10 uM incubated for 48 hrs by sulforhodamine B assay relative to control
Format: functional
condition: MDA-MB-231, 48 h, read-out: Activity
Here the recorded growth at 10 µM is given for each entry.

- inputSmiles: "O=C(Nc1cccc(-n2cc(-c3ccncc3)c(-c3cc(O)cc(Cl)c3)n2)c1)Nc1ccc(Cl)c(C(F)(F)F)c1"
  valueUnit: "%"
  growth at 10 µM: -47.3
- inputSmiles: "COc1cc(Cl)cc(-c2nn(-c3cccc(NC(=O)Nc4ccc(Cl)c(Cl)c4)c3)cc2-c2ccncc2)c1"
  valueUnit: "%"
  growth at 10 µM: -21
- inputSmiles: "COc1cc(Cl)cc(-c2nn(-c3cccc(NC(=O)Nc4cc(C(F)(F)F)cc(C(F)(F)F)c4)c3)cc2-c2ccncc2)c1"
  valueUnit: "%"
  growth at 10 µM: -75
- inputSmiles: "COc1cc(Cl)cc(-c2nn(-c3cccc(NC(=O)c4cc(C(F)(F)F)cc(C(F)(F)F)c4)c3)cc2-c2ccncc2)c1"
  valueUnit: "%"
  growth at 10 µM: 56.7
